- Tested on: FAJ-N1C0 recombinant β-galactoside-α2,3-sialyltransferase
- assay_comment: Acceptor substrate specificity of recombinant β-galactoside-α2,3-sialyltransferase (mono-, disaccharides)
- Format: biochemical, Vibrio sp.
- Set-up: tested at 42 mM
- condition_label: Table 16: activity toward lactose set to 100; 20° C., 14 hours
Catalogue of FAJ-N1C0 Sialyltransferase activity Relative activity (%) values
The response must be a number in % with no trailing unit.

{"columns": ["compound", "units_label", "recorded_measurement"],
 "data": [
  ["CC(=O)N[C@H]1C(O)O[C@H](CO)[C@H](O)[C@@H]1O (stereo partly shown)", "%", 58]
]}

Asked: Recorded FAJ-N1C0 Sialyltransferase activity Relative activity (%) of CO[C@@H]1O[C@H](CO)[C@@H](O)[C@H](O)[C@H]1O [Methylβglucopyranoside, methyl-β-D-glucopyranoside] , please.
Given back: 52

Asked: Fill in the blank: the reported FAJ-N1C0 Sialyltransferase activity Relative activity (%) of CO[C@H]1O[C@H](CO)[C@H](O)[C@H](O)[C@H]1O [Methylαgalactopyranoside, methyl-α-D-galactopyranoside] is ____.
Given back: 135

Asked: Record request: FAJ-N1C0 Sialyltransferase activity Relative activity (%) value, item CC(=O)N[C@H]1C(O)O[C@H](CO)[C@@H](O)[C@@H]1O (stereo partly shown)
Given back: 55

###

- Test system: ISH467-N2C0 recombinant β-galactoside-α2,3-sialyltransferase
- assay_comment: Acceptor substrate specificity of recombinant β-galactoside-α2,3-sialyltransferase (mono-, di-, trisaccharides)
- Assay type: biochemical, Photobacterium phosphoreum
- condition_label: Table 16: 1 μmol acceptor, pH 5.0, about 2.5 mU enzyme, 20° C., 14 hours
assay_metric: ISH467-N2C0 Sialyltransferase activity (nmol/min)
Give the value, in units of nmol/min, as a plain number.

Examples with answers:
{"columns": ["molecule", "units_label", "recorded_measurement"],
 "data": [
  ["CO[C@H]1O[C@H](CO)[C@H](O)[C@H](O)[C@H]1O [Methylαgalactopyranoside, methyl-α-D-galactopyranoside]", "nmol/min", 10.5],
  ["CC(=O)N[C@H]1C(O)O[C@H](CO)[C@H](O)[C@@H]1O (stereo partly shown)", "nmol/min", 5.4],
  ["OC[C@H]1O[C@@H](O[C@H]2[C@H](O)[C@@H](O)C(O)O[C@@H]2CO)[C@H](O)[C@@H](O)[C@H]1O (stereo partly shown)", "nmol/min", 7.8],
  ["CO[C@H]1O[C@H](CO)[C@@H](O)[C@H](O)[C@H]1O [Methylαglucopyranoside, methyl-α-D-glucopyranoside]", "nmol/min", 6.2],
  ["CC(=O)N[C@H]1C(O)O[C@H](CO)[C@@H](O[C@@H]2O[C@H](CO)[C@H](O)[C@H](O)[C@H]2O)[C@@H]1O (stereo partly shown)", "nmol/min", 9.2]
]}

Asked: Form: Entry = CO[C@@H]1O[C@H](CO)[C@H](O)[C@H](O)[C@H]1O [Methylβgalactopyranoside, methyl-β-D-galactopyranoside] | System = ISH467-N2C0 recombinant β-galactoside-α2,3-sialyltransferase | ISH467-N2C0 Sialyltransferase activity = ____
Given back: 9.1

Asked: Given the entry CO[C@H]1O[C@H](CO)[C@@H](O)[C@H](O)[C@@H]1O [Methylαmannopyranoside, methyl-α-D-mannopyranoside] , what ISH467-N2C0 Sialyltransferase activity was observed with ISH467-N2C0 recombinant β-galactoside-α2,3-sialyltransferase?
Given back: 5.5

Asked: Entry CC(=O)N[C@H]1C(O)O[C@H](CO)[C@@H](O)[C@@H]1O (stereo partly shown) , system ISH467-N2C0 recombinant β-galactoside-α2,3-sialyltransferase: what ISH467-N2C0 Sialyltransferase activity was measured?
Given back: 5.0

Asked: Notebook: pull reported ISH467-N2C0 Sialyltransferase activity for ISH467-N2C0 recombinant β-galactoside-α2,3-sialyltransferase, entry CO[C@@H]1O[C@H](CO)[C@@H](O)[C@H](O)[C@H]1O [Methylβglucopyranoside, methyl-β-D-glucopyranoside]
Given back: 3.6

Asked: Provide the documented ISH467-N2C0 Sialyltransferase activity with ISH467-N2C0 recombinant β-galactoside-α2,3-sialyltransferase as the system for "CO[C@@H]1O[C@H](CO)[C@@H](O)[C@H](O[C@@H]2O[C@H](CO)[C@H](O)[C@H](O)[C@H]2O)[C@H]1NC(C)=O"
Given back: 9.6

###

Catalogue of compounds with associated ISH224-N1C0 Sialyltransferase activity Relative activity (%)
- Test system: ISH224-N1C0 recombinant β-galactoside-α2,3-sialyltransferase
- assay_comment: Acceptor substrate specificity of recombinant β-galactoside-α2,3-sialyltransferase (mono-, di-, trisaccharides)
- Assay type: biochemical, Photobacterium sp.
- condition_label: Table 17: activity toward lactose set to 100; 30° C., 0.5 minutes or 2 minutes
A complete answer gives the number followed by the unit.

Some solved cases for reference:
{"columns": ["compound", "target_entity", "recorded_measurement"],
 "data": [
  ["CO[C@@H]1O[C@H](CO)[C@@H](O)[C@H](O[C@@H]2O[C@H](CO)[C@H](O)[C@H](O)[C@H]2O)[C@H]1NC(C)=O", "ISH224-N1C0 recombinant β-galactoside-α2,3-sialyltransferase", "192%"],
  ["OC[C@H]1O[C@@H](O[C@H]2[C@H](O)[C@@H](O)C(O)O[C@@H]2CO)[C@H](O)[C@@H](O)[C@H]1O (some centres unmarked)", "ISH224-N1C0 recombinant β-galactoside-α2,3-sialyltransferase", "100%"],
  ["CO[C@H]1O[C@H](C)[C@H](O)[C@H](O)[C@H]1O [Methylαfucopyranoside, methyl-α-D-fucopyranoside]", "ISH224-N1C0 recombinant β-galactoside-α2,3-sialyltransferase", "68%"],
  ["CO[C@@H]1O[C@H](CO)[C@H](O)[C@H](O)[C@H]1O [Methylβgalactopyranoside, methyl-β-D-galactopyranoside]", "ISH224-N1C0 recombinant β-galactoside-α2,3-sialyltransferase", "343%"]
]}

Asked: For ISH224-N1C0 recombinant β-galactoside-α2,3-sialyltransferase, provide ISH224-N1C0 Sialyltransferase activity Relative activity (%) of CO[C@@H]1O[C@H](C)[C@H](O)[C@H](O)[C@H]1O [Methylβfucopyranoside, methyl-β-D-fucopyranoside] please.
Given back: 48%

###

- System: ISH467-N2C0 recombinant β-galactoside-α2,3-sialyltransferase
- assay_comment: Acceptor substrate specificity of recombinant β-galactoside-α2,3-sialyltransferase (mono-, di-, trisaccharides)
- Assay type: biochemical, Photobacterium phosphoreum
- condition_label: Table 17: 1 μmol acceptor, pH 5.0, 2.3 mU per reaction, 30° C., 0.5 minutes or 2 minutes
assay_metric: ISH467-N2C0 Sialyltransferase activity
In your response, put the unit directly after the numeric value.

Asked: Form entry - test system: ISH467-N2C0 recombinant β-galactoside-α2,3-sialyltransferase; read-out: ISH467-N2C0 Sialyltransferase activity; molecule: CO[C@H]1O[C@H](C)[C@H](O)[C@H](O)[C@H]1O [Methylαfucopyranoside, methyl-α-D-fucopyranoside]
Given back: 1.13 nmol/min

Asked: Give recorded ISH467-N2C0 Sialyltransferase activity with ISH467-N2C0 recombinant β-galactoside-α2,3-sialyltransferase for the following molecule: CO[C@@H]1O[C@H](CO)[C@@H](O)[C@H](O)[C@@H]1O [Methylβmannopyranoside, methyl-β-D-mannopyranoside]
Given back: 1.45 nmol/min

Asked: So what ISH467-N2C0 Sialyltransferase activity did CO[C@@H]1O[C@H](CO)[C@@H](O)[C@H](O)[C@H]1O [Methylβglucopyranoside, methyl-β-D-glucopyranoside] get with ISH467-N2C0 recombinant β-galactoside-α2,3-sialyltransferase?
Given back: 0.76 nmol/min

Asked: Give ISH467-N2C0 Sialyltransferase activity (ISH467-N2C0 recombinant β-galactoside-α2,3-sialyltransferase) of the following molecule: CO[C@H]1O[C@H](CO)[C@@H](O)[C@H](O)[C@H]1O [Methylαglucopyranoside, methyl-α-D-glucopyranoside]
Given back: 1.11 nmol/min

This collection of values is drawn from patent US8030043B2.
